Kindly state GI50 for each of the entries shown.
tested on: K562; assay: NCI tumour cell line growth inhibition, 48 h
Activity calls are given as the source filed them. Rule as the data show it: active = GI50 up to about 1.1 µM and inactive = higher.

// query Return GI50 measured with K562 given this compound: O=C(C(Cl)=C(N1CCOCC1)N1CCOCC1)C(Cl)Cl
// result > 100 µM (inactive)

// query Return GI50 measured with K562 given this compound: Cc1ccc(S(=O)(=O)NC(=O)NC(CC(N)=O)C(=O)O)cc1 (stereo unspecified)
// result > 100 µM (inactive)

// query Return GI50 measured with K562 given this compound: CCC(=O)NCC1CCCN2CCCCC12 (stereo unspecified)
// result > 100 µM (inactive)

// query Return GI50 measured with K562 given this compound: CC1(C)COC(c2cccc(C(O)c3ccc(Cl)cc3)c2)=N1 (stereo unspecified)
// result 23.4 µM (inactive)

// query Return GI50 measured with K562 given this compound: NCCNCc1c2ccccc2c(CNCCN)c2ccccc12
// result 7.59 µM (inactive)

// query Return GI50 measured with K562 given this compound: CCSc1nc2sc(C)c(C)c2c(=O)n1-c1ccc(C(=O)O)cc1
// result 55.5 µM (inactive)

// query Return GI50 measured with K562 given this compound: Cc1cc[n+]2c(c1)-c1cc(C)cc[n+]1CC2
// result > 100 µM (inactive)

// query Return GI50 measured with K562 given this compound: CC(=O)Nc1ccc(/C=C/C(=O)c2sc(-n3nc(-c4ccccc4)cc3-c3ccccc3)nc2C)cc1
// result > 10 µM (inactive)

// query Return GI50 measured with K562 given this compound: Cc1cn(CCCCOC(=O)NC(CCCNC(=N)N)C(=O)O)c(=O)[nH]c1=O (stereo unspecified)
// result > 100 µM (inactive)

// query Return GI50 measured with K562 given this compound: Cn1c2c(c3ccccc31)CCN1C(=O)CCC21 (stereo unspecified)
// result > 10 µM (inactive)

// query Return GI50 measured with K562 given this compound: CC1=C(C(=O)Nc2ccc(C)cc2)C(c2cccc([N+](=O)[O-])c2)C(C(=O)Nc2ccc(C)cc2)=C(C)N1
// result 16.9 µM (inactive)

Data provenance: ChEMBL document CHEMBL1201862
